Test system: CMK
test protocol: CellTox Green cytotoxicity fluorescence relative to DMSO vehicle (fold of vehicle RFU); higher = more cell death (loss of membrane integrity), active = 2 or more
recorded conditions: 0.01 µM; 48 h
Decision: CellTox Green cytotoxicity fluorescence >= 1 yields yes (1), all other cases yield no (0).

CN(C)CCCCC(=O)Nc1ccc(NC(=S)NC(=O)c2ccc(C(C)(C)C)cc2)cc1 [Tenovin-6]
no (0)
CC(=NNC(=S)N1CCC1)c1ccccn1
no (0)
CNC(=O)c1ccccc1Nc1cc(Nc2ccc(N3CCOCC3)cc2OC)ncc1C(F)(F)F
no (0)
CC[C@@]1(O)C(=O)OCc2c1cc1n(c2=O)Cc2cc3cc(O)ccc3nc2-1 [(S)-10-Hydroxycamptothecin]
yes (1)
CCCCCCCCCCCC1=C(O)C(=O)C=C(O)C1=O [Embelin]
yes (1)

Consider now this further molecule.
Threshold query (CellTox Green cytotoxicity fluorescence >= 1) on CC1(C)CCC(c2ccc(Cl)cc2)=C(CN2CCN(c3ccc(C(=O)NS(=O)(=O)c4ccc(N[C@H](CCN5CCOCC5)CSc5ccccc5)c(S(=O)(=O)C(F)(F)F)c4)cc3)CC2)C1 [Navitoclax]
no (0)

---

System: Kasumi-1
test protocol: CellTox Green cytotoxicity fluorescence relative to DMSO vehicle (fold of vehicle RFU); higher = more cell death (loss of membrane integrity), active = 2 or more
recorded conditions: 1 µM; 72 h
measure: CellTox Green cytotoxicity fluorescence

Before answering, review these 5 worked examples.
Cc1c(C(=O)Nc2ccc(Oc3ccnc4[nH]cc(-c5ccccc5)c34)c(F)c2)c(=O)n(-c2ccc(F)cc2)n1C
0.805 (inactive)
CCOc1cc(C(C)(C)C)ccc1C1=N[C@@](C)(c2ccc(Cl)cc2)[C@@](C)(c2ccc(Cl)cc2)N1C(=O)N1CCN(CCCS(C)(=O)=O)CC1
1.03 (inactive)
COc1nc(OCc2cccc(-c3ccccc3)c2C)ccc1CNCCNC(C)=O [PD-1/PD-L1 inhibitor 2]
0.999 (inactive)
CC(=NNC(=S)N1CCC1)c1ccccn1
1.49 (inactive)
CN(C)CC[C@H](CSc1ccccc1)Nc1ccc(S(=O)(=O)NC(=O)c2ccc(N3CCN(Cc4ccccc4-c4ccc(Cl)cc4)CC3)cc2)cc1[N+](=O)[O-]
1.84 (inactive)

Fill in CellTox Green cytotoxicity fluorescence for each of the 3 compounds listed.
1. O=C(NS(=O)(=O)c1ccc(Br)s1)c1ccc(Cl)cc1Cl [Tasisulam]
2. CC(C)c1ccccc1Cc1cc(C(=O)Nc2ccc(S(=O)(=O)c3ccccc3C(C)(C)C)cc2)c(O)c(O)c1O
3. CC1(C)CC[C@]2(NC(=O)C(C)(F)F)CC[C@]3(C)[C@H](C(=O)C=C4[C@@]5(C)C=C(C#N)C(=O)C(C)(C)[C@@H]5CC[C@]43C)[C@@H]2C1 [Omaveloxolone]

["0.96 (inactive)", "0.919 (inactive)", "1.34 (inactive)"]

---

Tested on: MV4-11
test protocol: CellTox Green cytotoxicity fluorescence relative to DMSO vehicle (fold of vehicle RFU); higher = more cell death (loss of membrane integrity), active = 2 or more
recorded conditions: 0.01 µM; 48 h
Could you please report measured CellTox Green cytotoxicity fluorescence for the items listed next?
Answers are plain numbers.

CCOc1cc(C(C)(C)C)ccc1C1=N[C@@](C)(c2ccc(Cl)cc2)[C@@](C)(c2ccc(Cl)cc2)N1C(=O)N1CCN(CCCS(C)(=O)=O)CC1
1.01
CCOC(=O)c1[nH]c2cc(Cl)ccc2c1C(C(=O)NC(C)(C)C)N(C=O)Cc1ccc(Cl)cc1 (stereo not given)
0.965
O=C(COc1ccc(Cl)cc1)NC1CCC(NC(=O)COc2ccc(Cl)cc2)CC1 (stereo not given)
0.994
Nc1cccc2c1CN(C1CCC(=O)NC1=O)C2=O (stereo not given) [Lenalidomide]
0.942
CCN(CC)CCNC(=O)c1c(C)[nH]c(/C=C2\C(=O)Nc3ccc(F)cc32)c1C [Sunitinib]
1.06
CNC(=O)c1ccc(Nc2ncc(C(F)(F)F)c(NCc3nccnc3N(C)S(C)(=O)=O)n2)cc1 [Defactinib]
0.943
O=C(NS(=O)(=O)c1ccc(Br)s1)c1ccc(Cl)cc1Cl [Tasisulam]
0.955
CCC(CC)n1ccc2c(C(=O)NCc3c(C)cc(C)[nH]c3=O)cc(C#N)cc21
0.857
C/C(=N\NC(=O)c1cccc(S(=O)(=O)N2CCOCC2)c1)c1cc(Cl)ccc1O
0.97
CC(=O)O/N=C1/C(c2c(O)[nH]c3cc(Br)ccc23)=Nc2ccccc21 [BIO-acetoxime]
1.57

Fill in CellTox Green cytotoxicity fluorescence for each of the 5 molecules listed.
1. c1ccc2c(CCNc3ccc(Nc4ccncc4)cc3)c[nH]c2c1 [Serdemetan]
2. CN[C@@H](C)C(=O)N[C@H](C(=O)N1CCC[C@H]1c1nc(C(=O)c2ccc(F)cc2)cs1)C1CCCCC1
3. CC(=NNC(=S)N1CCC1)c1ccccn1
4. CCCC[C@@H](C=O)NC(=O)[C@H](CC(C)C)NC(=O)OCc1ccccc1 [Calpeptin]
5. CC(C)[C@H](CO)Nc1nc(Nc2cccc(Cl)c2)c2ncn(C(C)C)c2n1 [Purvalanol A]

[0.948, 0.973, 1.31, 0.988, 1.02]

Fill in CellTox Green cytotoxicity fluorescence for each of the 5 molecules listed.
1. CN1CCN(Cc2ccc(Nc3ncc(Cl)c(Nc4ccccc4S(=O)(=O)N(C)C)n3)cc2)CC1
2. C=CC(=O)N1CCN(C(=O)CNc2cc(I)c(Cl)cc2O)CC1 [K-Ras(G12C) inhibitor 12]
3. N#CC(=Cc1ccc(-c2cc(Cl)ccc2Cl)o1)C(=O)Nc1cccc2ncccc12
4. CC(C)c1ccccc1Cc1cc(C(=O)Nc2ccc(S(=O)(=O)c3ccccc3C(C)(C)C)cc2)c(O)c(O)c1O
5. Cc1cccc(CC(=O)N2CCc3c2ccc(-c2cn(C)c4ncnc(N)c24)c3F)n1

0.961
0.976
0.987
0.952
1.04

Fill in CellTox Green cytotoxicity fluorescence for each of the 5 molecules listed.
1. N#Cc1ccc(-c2c(-c3ncn[nH]3)sc(N3CCOCC3)c2C#N)c(F)c1
2. CCS(=O)(=O)N1CCN(c2ccc(Nc3ncc(C(N)=O)c(NC4CC4)n3)cc2)CC1 [Cerdulatinib]
3. CC(=O)N1c2ccc(-c3ccc(C(=O)O)cc3)cc2[C@H](Nc2ccc(Cl)cc2)C[C@@H]1C
4. COCC[n+]1c2c(n(Cc3cnccn3)c1C)C(=O)c1ccccc1C2=O [Sepantronium Bromide]
5. Cc1c(C(=O)Nc2ccc(Oc3ccnc4[nH]cc(-c5ccccc5)c34)c(F)c2)c(=O)n(-c2ccc(F)cc2)n1C

1. 0.967
2. 0.94
3. 0.997
4. 0.938
5. 1.03

Fill in CellTox Green cytotoxicity fluorescence for each of the 7 molecules listed.
1. Cn1cc(-c2ccc3c(c2)CCN3C(=O)Cc2cccc(C(F)(F)F)c2)c2c(N)ncnc21
2. Nc1cccc2c1C(=O)N(C1CCC(=O)NC1=O)C2=O (stereo not given) [Pomalidomide]
3. Nc1ccccc1NC(=O)c1cnccn1
4. Cc1nc(Nc2ncc(C(=O)Nc3c(C)cccc3Cl)s2)cc(N2CCN(CCO)CC2)n1 [Dasatinib Monohydrate]
5. CN[C@@H](C)C(=O)N[C@H](C(=O)N1CCC[C@H]1C(=O)Nc1snnc1-c1ccccc1)C1CCCCC1
6. COc1cc(C(=O)N2CCC(N3CCN(C)CC3)CC2)ccc1Nc1ncc2c(n1)N(C)c1ccccc1C(=O)N2C
7. COc1cc(C(=O)O)ccc1NC(=O)[C@@H]1N[C@@H](CC(C)(C)C)[C@](C#N)(c2ccc(Cl)cc2F)[C@H]1c1cccc(Cl)c1F [Idasanutlin]

[0.984, 0.995, 0.952, 0.989, 0.97, 1.01, 0.967]

Fill in CellTox Green cytotoxicity fluorescence for each of the 3 molecules listed.
1. O=C(O)CSc1cc(NS(=O)(=O)c2ccc(Br)cc2)c2ccccc2c1O
2. CCO[C@@H]1OC(=O)C[C@@H]1NC(=O)[C@@H]1CCCN1C(=O)[C@@H](NC(=O)c1ccc(N)c(Cl)c1)C(C)(C)C
3. O=C1CCC(N2C(=O)c3ccccc3C2=O)C(=O)N1 (stereo not given) [Thalidomide]

1. 0.983
2. 0.981
3. 0.959
